tested on: SW-620; test: NCI tumour cell line growth inhibition, 48 h
Calls of active or inactive are those of the source. Rule as the data show it: active = GI50 up to about 1.1 µM and inactive = higher.
Entry note: the call must match one of Yes (active), No (inactive)

Input line: I'd appreciate the recorded outcome for CCOC(=O)c1ccc(Nc2nc3cc(C(F)(F)F)ccc3nc2C(=O)OCC)cc1 from this test.
Output line: No

Input line: I'd appreciate the recorded outcome for Cc1cc(O)nc(/N=C(\N)Nc2ccc(Cl)cc2)n1 from this test.
Output line: No

Input line: I'd appreciate the recorded outcome for COc1cc(C2S/C(=C/c3ccccc3)C(=O)N2c2ccc([N+](=O)[O-])cc2)cc(OC)c1OC (stereo not given) from this test.
Output line: No

Input line: I'd appreciate the recorded outcome for Clc1ccc(/C(=C/c2ccccc2)Cn2ccnc2)cc1 from this test.
Output line: No

Input line: I'd appreciate the recorded outcome for O=C(NC(=S)Nc1ccc([N+](=O)[O-])cc1)c1ccc2c(c1)Sc1ccccc1O2 from this test.
Output line: No

Input line: I'd appreciate the recorded outcome for CC(C)(C)c1ccccc1NS(=O)(=O)c1ccccc1 from this test.
Output line: No

Input line: I'd appreciate the recorded outcome for C[C@@H]1C[C@]2(C[C@@H](C)C3[C@@H](CC4(C)[C@@H]5CCC6C(C)(C)OC(=O)C=C[C@]67C[C@@]5(CC[C@]34C)OO7)O2)OC1=O (stereo not given in full) from this test.
Output line: No

Input line: I'd appreciate the recorded outcome for ClC(Cl)(Cl)C1=N[C@H]2[C@H](Br)[C@@H]3O[C@@H](c4ccccc4)[C@H](c4ccccc4)O[C@@H]3[C@H]2O1 from this test.
Output line: No

Input line: I'd appreciate the recorded outcome for Oc1c(OCc2nnc(CCCCCCCCc3nnc(COc4ccc5ccccc5c4O)o3)o2)ccc2ccccc12 from this test.
Output line: No

Input line: I'd appreciate the recorded outcome for CC[C@@]1(O)C(=O)OCc2c1cc1n(c2=O)Cc2cc3c(N)cccc3nc2-1 from this test.
Output line: Yes

###

tested on: NCI-H23; test: NCI tumour cell line growth inhibition, 48 h
The source made the active and inactive calls. Cut-off read from the data, not from the text of the source: active = GI50 up to about 1.1 µM and inactive = higher.
Entry note: the call must match one of active, inactive

Input line: I'd appreciate the recorded outcome for Cc1nc(N2N=C(c3ccc(Cl)cc3)CCC2=O)sc1[N+](=O)[O-] from this test.
Output line: inactive

Input line: I'd appreciate the recorded outcome for Cc1cccc(NC(=O)CC2C(=O)Nc3ccccc3S2(=O)=O)c1C (stereo not given) from this test.
Output line: inactive

Input line: I'd appreciate the recorded outcome for Cc1c(Cl)nc(Nc2nc3ccccc3[nH]2)nc1Cl from this test.
Output line: inactive

Input line: I'd appreciate the recorded outcome for CCOc1ccc(-c2nc(-c3oc4ccccc4c(=O)c3OC(C)=O)cs2)cc1 from this test.
Output line: inactive

Input line: I'd appreciate the recorded outcome for C#CC(O)/C=C/C(O)CCCC(O)CC#CC(O)C#CCCCCC(O)/C=C/CCCCCC(=O)CCCCCCCCCCCCCC(O)C(O)C#CC(=O)O (stereo not given) from this test.
Output line: inactive

Input line: I'd appreciate the recorded outcome for COC(=O)[C@]12CCC(C)(C)C[C@H]1[C@H]1C(=O)C=C3[C@@]4(C)C=C(C#N)C(=O)C(C)(C)[C@@H]4CC[C@@]3(C)[C@]1(C)CC2 [BARDOXOLONE METHYL] from this test.
Output line: active

Input line: I'd appreciate the recorded outcome for NC(=O)c1nnc2cc(F)ccc2c1N from this test.
Output line: inactive

Input line: I'd appreciate the recorded outcome for O=C(Nc1cccc(C(F)(F)F)c1)C(=O)C1NC(=S)NC1=O (stereo not given) from this test.
Output line: inactive

Input line: I'd appreciate the recorded outcome for CN(C)C(=O)c1ccc([N+](=O)[O-])cc1 from this test.
Output line: inactive

Input line: I'd appreciate the recorded outcome for Cc1cn(C(C)OCCN2C(=O)c3ccccc3C2=O)c(=O)[nH]c1=O (stereo not given) from this test.
Output line: inactive

Input line: I'd appreciate the recorded outcome for O=c1[nH]c(-c2ccccc2)nc2ccc(Cl)cc12 from this test.
Output line: inactive

Input line: I'd appreciate the recorded outcome for Cn1c(=O)c(/N=N/c2c(=O)n(C)c(=O)n3c2[nH]c2ccccc23)c2[nH]c3ccccc3n2c1=O from this test.
Output line: inactive

Input line: I'd appreciate the recorded outcome for CC(C)(C)c1ccc(-c2nc3ccc([N+](=O)[O-])cc3c(=O)o2)cc1 from this test.
Output line: inactive

Input line: I'd appreciate the recorded outcome for Cc1ccc(S(=O)(=O)N/N=C2/CCCOC2)cc1 from this test.
Output line: inactive

Input line: I'd appreciate the recorded outcome for CCC(=O)C(CCN1CCC2(CCCc3ccccc32)CC1)(c1ccccc1)c1ccccc1 from this test.
Output line: inactive

Input line: I'd appreciate the recorded outcome for CCOC(=O)[C@H]1Nc2ccc(Cl)cc2[C@H]2c3ccccc3O[C@H]21 from this test.
Output line: inactive

Input line: I'd appreciate the recorded outcome for CCOC(=O)CCC(NC(=O)c1ccc(NCc2ccc3nc(-c4ccccc4)c(Cl)nc3c2)c2ccccc12)C(=O)OCC (stereo not given) from this test.
Output line: inactive

Input line: I'd appreciate the recorded outcome for CC(=O)OC[C@H]1[C@@H]2C(CC[C@]13CO3)OC(=O)CC(C)[C@]2(C)CCc1ccoc1 (stereo not given in full) from this test.
Output line: inactive

Input line: I'd appreciate the recorded outcome for COc1ccc(/C(C)=N/NC(=O)c2ccncc2)cc1OC from this test.
Output line: inactive

Input line: I'd appreciate the recorded outcome for Cc1ccc(C2=C(C#N)C(N)OC3=C2COc2ccccc23)cc1 (stereo not given) from this test.
Output line: inactive

###

test system: NCI-H460; test: NCI tumour cell line growth inhibition, 48 h
Calls of active or inactive are those of the source. Rule as the data show it: active = GI50 up to about 1.1 µM and inactive = higher.
Entry note: the call must match one of yes (1) for active, no (0) for inactive

Input line: I'd appreciate the recorded outcome for C=CC1OC(CCCOC(=O)C(C)(C)C)O[C@@H]1CC (stereo partly specified) from this test.
Output line: no (0)

Input line: I'd appreciate the recorded outcome for COc1cc(C(C)O)c[n+](CCC2CNc3ccccc32)c1 (stereo unspecified) from this test.
Output line: no (0)

Input line: I'd appreciate the recorded outcome for COC(=O)C1=C(C[S+]([O-])c2ccc([N+](=O)[O-])cc2[N+](=O)[O-])ON(C)C1c1ccccc1 (stereo unspecified) from this test.
Output line: no (0)

Input line: I'd appreciate the recorded outcome for C=CC[C@@]1(C)CCCCCCCCC[C@@](C)(CC=C)C1=O from this test.
Output line: no (0)

Input line: I'd appreciate the recorded outcome for N=C(c1ccccc1)N1CCCCC1 from this test.
Output line: no (0)

Input line: I'd appreciate the recorded outcome for N#CSc1ccc(S(N)(=O)=O)cc1 from this test.
Output line: no (0)

Input line: I'd appreciate the recorded outcome for O=C1c2c(c3c4ccccc4[nH]c3c3[nH]c4ccccc4c23)C(=O)N1Cc1ccccc1 from this test.
Output line: no (0)

Input line: I'd appreciate the recorded outcome for CCCCCC/C=C1\CCC(CN2CCCC2)C1=O (stereo unspecified) from this test.
Output line: no (0)

Input line: I'd appreciate the recorded outcome for COC(=O)[C@]12CCC(C)(C)C[C@H]1[C@H]1C(=O)C=C3[C@@]4(C)C=C(C#N)C(=O)C(C)(C)[C@@H]4CC[C@@]3(C)[C@]1(C)CC2 from this test.
Output line: yes (1)

Input line: I'd appreciate the recorded outcome for COc1cc2nc(NCCCCCNC(=O)c3ccco3)nc(N)c2cc1OC from this test.
Output line: no (0)

Input line: I'd appreciate the recorded outcome for CCN1C[C@]2(C)CC[C@H](O)C34C1C(C[C@@H]32)[C@@]1(O)CC[C@H]2C[C@@H]4[C@@H]1[C@H]2O from this test.
Output line: no (0)

Input line: I'd appreciate the recorded outcome for Nc1ccc2c(=S)c3ccccc3[nH]c2c1 from this test.
Output line: no (0)

Input line: I'd appreciate the recorded outcome for C[C@]12CC[C@H]3[C@@H](CC=C4C[C@@H](N5CCCC5)CC[C@@]43C)[C@@H]1C[C@H](N1CCOCC1)[C@@H]2O from this test.
Output line: no (0)

Input line: I'd appreciate the recorded outcome for NC(=O)NC(=O)c1cccc(NC(=O)CBr)c1 from this test.
Output line: yes (1)

Input line: I'd appreciate the recorded outcome for Cc1ccc2c(c1)C(=O)C1(C2)Cc2c(C)cccc2C1=O (stereo unspecified) from this test.
Output line: no (0)

Input line: I'd appreciate the recorded outcome for COc1ccc(NCn2nc(CCCCCCCCc3nn(CNc4ccc(OC)cc4)c(=S)o3)oc2=S)cc1 from this test.
Output line: no (0)

Input line: I'd appreciate the recorded outcome for Oc1c(OCc2nnc(CCCCCCCCc3nnc(COc4ccc5ccccc5c4O)o3)o2)ccc2ccccc12 from this test.
Output line: no (0)

Input line: I'd appreciate the recorded outcome for CN(C)c1ccc(/C=C/c2ccnc3ccccc23)cc1N from this test.
Output line: no (0)

Input line: I'd appreciate the recorded outcome for O=C(N/C=C1\C(=O)Oc2ccccc2C1=O)NC1CCCCC1 from this test.
Output line: no (0)

Input line: I'd appreciate the recorded outcome for c1ccc(-c2c[nH]c(SC(c3ccccc3)c3ccccc3)n2)cc1 from this test.
Output line: no (0)

Input line: I'd appreciate the recorded outcome for COc1cc2c(c(OC)c1)C(=O)O[C@H](C)CCCC/C=C/C2 from this test.
Output line: no (0)

Input line: I'd appreciate the recorded outcome for NCCCNCc1c2ccccc2c(CNCCCN)c2ccccc12 from this test.
Output line: no (0)

Input line: I'd appreciate the recorded outcome for CCCCc1ccc(Nc2nc3c(ncn3C3CC(O)C(CN=[N+]=[N-])O3)c(=O)[nH]2)cc1 (stereo unspecified) from this test.
Output line: no (0)

Input line: I'd appreciate the recorded outcome for O=C(NNC(=O)/C(=C/c1cccc([N+](=O)[O-])c1)NC(=O)c1ccccc1)Nc1ccc(Cl)cc1 from this test.
Output line: no (0)

Input line: I'd appreciate the recorded outcome for Cc1cc(O)cc2oc(=O)c3c(O)cc(O)cc3c12 from this test.
Output line: no (0)

Input line: I'd appreciate the recorded outcome for Cc1ccc(S(=O)(=O)OCC23CCC(C2)C2CC23)cc1 (stereo unspecified) from this test.
Output line: no (0)

Input line: I'd appreciate the recorded outcome for CC(O)C(C(=O)O)N(CC1(O)OCC(O)C(O)C1O)N=O (stereo unspecified) from this test.
Output line: no (0)

Input line: I'd appreciate the recorded outcome for CCOC(=O)c1nc2cc(C(F)(F)F)ccc2nc1Nc1ccc(OC)c(OC)c1 from this test.
Output line: no (0)

Input line: I'd appreciate the recorded outcome for CC1OC(OC2C(O[C@H]3CC[C@@]4(C)C(=CC[C@H]5[C@@H]6C[C@@H]7O[C@]8(CC[C@@H](C)CO8)[C@@H](C)[C@@H]7[C@@]6(C)CC[C@@H]54)C3)OC(CO)C(OC3OC(CO)C(O)C3O)C2O)C(O)C(O)C1O (stereo partly specified) from this test.
Output line: yes (1)

Input line: I'd appreciate the recorded outcome for CCC(C)CNC1=C(NC(C)=O)C(=O)c2ccccc2C1=O (stereo unspecified) from this test.
Output line: no (0)

Input line: I'd appreciate the recorded outcome for O=S(=O)(c1ccccc1)C1CC(c2nc3ccccc3[nH]2)=NO1 (stereo unspecified) from this test.
Output line: no (0)
